System: BVDV
Assay: BVDV single cycle virus yield reduction assay with plaque titration
Format: cell-based, BVDV (NADL strain)
Conditions: Bovine viral diarrhea virus isolates and strains; MDBK cells, MOI 0.5, 22 hours post infection; compound 0.16 μM to 100 μM
Property Measured: EC90 (µM)
Return type: number; implicit unit µM.

CC(C)(C)C(=O)N(CCCCCCN1C[C@H](O)[C@@H](O)[C@H](O)[C@H]1CO)C1CCCC1 : 32
O=C(c1ccccc1)N(CCCCCCN1C[C@H](O)[C@@H](O)[C@H](O)[C@H]1CO)C1CCCCC1 : 11
O=S(=O)(c1ccccc1)N(CCCCCCN1C[C@H](O)[C@@H](O)[C@H](O)[C@H]1CO)C1CCCCC1 : 18

INPUT: Test system BVDV; read-out EC90; what value for CC(C)(C)N[S+]([O-])N(CCCCCCN1C[C@H](O)[C@@H](O)[C@H](O)[C@H]1CO)C1CCCCC1 (stereo partly shown) ?
OUTPUT: 25

###

Tested on: BVDV
Experiment: BVDV single cycle virus yield reduction assay with plaque titration
Format: cell-based, BVDV (NADL strain)
Details: Bovine viral diarrhea virus isolates and strains; MDBK cells, MOI 0.5, 22 hours post infection; compound 0.16 μM to 100 μM
Could you please mark Met for values of EC90 below 10 µM and Not met for values at or above it?

CC(C)C(=O)N(CCCCCCN1C[C@H](O)[C@@H](O)[C@H](O)[C@H]1CO)C1CCCCC1 : Not met
CC(C)(C)CC(=O)N(CCCCCCN1C[C@H](O)[C@@H](O)[C@H](O)[C@H]1CO)C1CCCCC1 : Met
CC(C)(C)S(=O)(=O)N(CCCCCCN1C[C@H](O)[C@@H](O)[C@H](O)[C@H]1CO)C1CCCCC1 : Not met

INPUT: # strict comparison: is reported EC90 < 10 µM? input = CC(C)(C)C(=O)N(CCCCCCN1C[C@H](O)[C@@H](O)[C@H](O)[C@H]1CO)c1ccc(F)cc1F
OUTPUT: Not met

INPUT: # strict comparison: is reported EC90 < 10 µM? input = CC(C)(C)C(=O)N(CCCCCCN1C[C@H](O)[C@@H](O)[C@H](O)[C@H]1CO)C1CCCCC1
OUTPUT: Not met

INPUT: # strict comparison: is reported EC90 < 10 µM? input = CC1CCCCC1N(CCCCCCN1C[C@H](O)[C@@H](O)[C@H](O)[C@H]1CO)C(=O)OC(C)(C)C (stereo partly drawn)
OUTPUT: Met

INPUT: # strict comparison: is reported EC90 < 10 µM? input = CC(=O)N(CCCCCCN1C[C@H](O)[C@@H](O)[C@H](O)[C@H]1CO)c1ccc(F)cc1F
OUTPUT: Not met

INPUT: # strict comparison: is reported EC90 < 10 µM? input = CC(C)(C)C(=O)N(CCCCCCN1C[C@H](O)[C@@H](O)[C@H](O)[C@H]1CO)C1CCCCCC1
OUTPUT: Met

INPUT: # strict comparison: is reported EC90 < 10 µM? input = CC(C)(C)C(=O)N(CCCCCCN1C[C@H](O)[C@@H](O)[C@H](O)[C@H]1CO)c1cc(F)ccc1F
OUTPUT: Not met
